Values were extracted from patent US10961215B2.

Target System: GST tagged LXRbeta LBD (ligand binding domain) (Homo sapiens)
Sequence (P55055 222-460 limits assumed): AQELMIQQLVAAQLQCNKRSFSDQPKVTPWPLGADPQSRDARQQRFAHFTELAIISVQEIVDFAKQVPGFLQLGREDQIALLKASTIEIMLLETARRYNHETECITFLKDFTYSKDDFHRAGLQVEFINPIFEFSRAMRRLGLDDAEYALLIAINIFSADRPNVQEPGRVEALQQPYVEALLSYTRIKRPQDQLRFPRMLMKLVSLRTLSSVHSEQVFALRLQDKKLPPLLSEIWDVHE
Test Description: LanthaScreen TR-FRET Liver X Receptor Coactivator Assay, LXR beta-LBD (co-activator recruitment; IP and % Emax relative to T0901317)
Test Conditions: Inflection Point of co-activator recruitment, LXR beta-LBD, TR-FRET
Give EC50 for every item shown.
Give the value, in units of nM, as a plain number.

Asked: Write EC50 of CN(C)C(=O)c1ccc(N2CCC(CCCN(C)C(=O)[C@@](O)(c3cc(F)cc(Cl)c3)C(F)(F)F)CC2)nc1Cl ; system used: GST tagged LXRbeta LBD (ligand binding domain) (Homo sapiens)
Given back: 453

Asked: Given CN(C)C(=O)c1ccc(N2CCC([C@@H]3C[C@H]3CNC(=O)[C@](O)(c3ccccc3)C(F)(F)F)CC2)nc1Cl , report its EC50 on GST tagged LXRbeta LBD (ligand binding domain) (Homo sapiens).
Given back: 264

Asked: Give EC50 only, for CC(C)[C@]1(C(=O)N(C)CCCC2CCN(c3ccc(C(=O)N(C)C)c(Cl)n3)CC2)CCCO1 , using GST tagged LXRbeta LBD (ligand binding domain) (Homo sapiens) data.
Given back: 1040

Asked: Report value: EC50, system: GST tagged LXRbeta LBD (ligand binding domain) (Homo sapiens), molecule: CN(C)C(=O)c1ccc(N2CCC(CCCN(C)C(=O)C3(c4ccccc4)CCOCC3)CC2)nc1Cl
Given back: 290
